Test Details: Volume of distribution at steady state in Wistar rat at 5 mg/kg, iv
Type: ADME, organism-based
Parameters: dose 5 mg/kg, route intravenous
Assay Conditions: in vivo, read-out: Vdss
Reported Endpoint: Vd (L/kg)
Numbers only here, please. The scale is L/kg.

Kindly indicate its recorded Vd. Item: COc1ccc(N2Cc3cnc(Nc4ccccc4)nc3N([C@@H]3CC[C@@H](O)C3)C2=O)cc1 (racemic)
5.3

---

Test Details: Tmax in C57/BL6 mouse at 100 mg/kg, po bid for 5 days
Type: ADME, organism-based
Set-up: dose 100 mg/kg, route oral
Assay Conditions: in vivo
Reported Endpoint: Tmax (min)
# unit: min | format: bare number

# return recorded Tmax for input COc1ccc(N2Cc3cnc(Nc4ccccc4)nc3N([C@@H]3CC[C@@H](O)C3)C2=O)cc1 (racemic)
30
